target: T1, biotin-labeled human PD-1 Fc protein (human, biotin-labeled (site not stated)); assay: capture ELISA, antibody captured on plate, biotin-labeled human PD-1 Fc in solution
T1 construct: also called PD-1-Fc-biotin
T1 sequence (chain, as listed by the source limits assumed): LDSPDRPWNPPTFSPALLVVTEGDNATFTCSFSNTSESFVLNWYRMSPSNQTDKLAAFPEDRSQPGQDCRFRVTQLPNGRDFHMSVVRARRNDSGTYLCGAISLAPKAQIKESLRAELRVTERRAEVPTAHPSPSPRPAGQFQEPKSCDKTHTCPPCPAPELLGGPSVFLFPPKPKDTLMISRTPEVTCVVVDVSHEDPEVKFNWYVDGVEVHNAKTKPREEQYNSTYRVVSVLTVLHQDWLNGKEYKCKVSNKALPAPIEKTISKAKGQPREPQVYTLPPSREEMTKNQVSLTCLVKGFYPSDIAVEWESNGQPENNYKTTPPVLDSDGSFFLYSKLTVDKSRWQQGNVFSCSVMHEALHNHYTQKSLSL
measured_attribute: EC50 (ng/mL)
API: value field is a number in ng/mL; no unit string.

Sample answers from the record:
binder	test_value
huD2H3-V5 (antibody, human IgG1, kappa, V domains shown, Humanized D2H3, human IgG1/kappa) VH: EVQLVQSGAEVKKPGSSVKVSCKSSGYTFTNYWMHWVRQAPGQGLEWIGAIFPRNSETNYNQKFKARATITADTSTSTAYMELSSLRSEDTAVYFCTRNRYGLDYWGQGTLVTVSS VL: DIVLTQSPDSLAVSLGERATINCRASESVSLHGTRLMHWYQQKPGQPPKLLISLGSNLESGVPDRFSGSGSETDFTLTISSLQAEDVAVYFCQQSIEDPWTFGQGTKLEIKR	0.32
mouse anti-PD-1 monoclonal antibody D2H3 (antibody, V domains shown, Mouse antibody purified from a hybridoma; also called Mouse D2H3; mouse D2H3) VH: EVQLQQSGTVLARPGASVKMSCKSSGYTFTNYWMHWVKQRPGQGLEWIGAIFPRNSETNYNQKFKAKAKLTAVTSASTAYMEVSSLTSEDSAVYFCTRNRYGLDYWGQGTSVTVSS VL: DIVLTQSPGFLAVSLGQRATISCRASESVSLHGTRLMHWYHQKPGQPPKLLISLGSNLESGVPARFSGSGSETDFTLNIHPVEEEDAATYFCQQSIEDPWTFGGGTKLEIK	0.18

Qu. Would you mind telling me what EC50 value was observed for Nivolumab (OPDIVO®) (antibody, V domains shown) VH: QVQLVESGGGVVQPGRSLRLDCKASGITFSNSGMHWVRQAPGKGLEWVAVIWYDGSKRYYADSVKGRFTISRDNSKNTLFLQMNSLRAEDTAVYYCATNDDYWGQGTLVTVSS VL: EIVLTQSPATLSLSPGERATLSCRASQSVSSYLAWYQQKPGQAPRLLIYDASNRATGIPARFSGSGSGTDFTLTISSLEPEDFAVYYCQQSSNWPRTFGQGTKVEIK ?
Ans. 0.27

Data credit: patent US20210095032A1
